Origin of values: the supplement of paper PMC13380429

Test system: Vero E6
Assay Remarks: drug sensitivity score (DSS) for viability; higher = more toxic; extreme values may be limits of the assay
Protocol Conditions: 72 h
Here the recorded drug sensitivity score is given for each entry.
Response field accepts a number only; no unit should be typed.

[[record]]
molecule = "COc1ccc(COc2ccc(Cc3cnc(N)nc3N)cc2OC)cc1 [GW-2580]"
test_target = "Vero E6"
quantity_kind = "drug sensitivity score"
data_value = 0

[[record]]
molecule = "O=C(N[C@@H](Cc1c[nH]c2ccccc12)C(=O)O)c1ccc(Cl)cc1 [benzotript]"
test_target = "Vero E6"
quantity_kind = "drug sensitivity score"
data_value = 0

[[record]]
molecule = "N=C(N)NC(=O)c1nc(Cl)c(N)nc1N [amiloride]"
test_target = "Vero E6"
quantity_kind = "drug sensitivity score"
data_value = 0

[[record]]
molecule = "CCS(=O)(=O)N1CCC([C@@H](C)n2c(C)c(C(=O)NCc3c(OC)cc(C)[nH]c3=O)c3ccccc32)CC1 [CPI-169]"
test_target = "Vero E6"
quantity_kind = "drug sensitivity score"
data_value = 0


Input COc1cc([C@@H]2c3cc4c(cc3[C@@H](O[C@@H]3O[C@@H]5CO[C@@H](C)O[C@H]5[C@H](O)[C@H]3O)[C@H]3COC(=O)[C@H]23)OCO4)cc(OC)c1OP(=O)(O)O [etoposide-phosphate] . Output drug sensitivity score: 0.3

----------
Here the recorded relative viability EC50 is given for each entry.
Tested on: Caco-2
Assay Remarks: relative viability EC50 (midpoint between 100% and the lowest measured viability); higher = less toxic
Protocol Conditions: 72 h

[[record]]
compound = "COc1ccc(S(=O)(=O)Nc2nc(-c3cccc([N+](=O)[O-])c3)cs2)cc1OC [Ro-61-8048]"
data_value = "> 10 µM"

[[record]]
compound = "CN(C)c1ccc(C(=O)NCCCCCCC(=O)NO)cc1 [M-344]"
data_value = "1.56 µM"

[[record]]
compound = "O=C(O)CCN(O)C(=O)CCCCCCCCC1CC1 [TC-E-5002]"
data_value = "> 10 µM"

[[record]]
compound = "O=C(O)COCCN1CCN(C(c2ccccc2)c2ccc(Cl)cc2)CC1 (configuration not stated) [cetirizine]"
data_value = "> 10 µM"

[[record]]
compound = "Oc1cc2c(cc1O)[C@@H]1c3ccc(O)c(O)c3OC[C@]1(O)C2 [hematoxylin]"
data_value = "> 10 µM"

[[record]]
compound = "COc1cccc2c1C(=O)c1c(O)c3c(c(O)c1C2=O)C[C@@](O)(C(=O)CO)C[C@@H]3O[C@H]1C[C@H](N2CCO[C@H](OC)C2)[C@H](O)[C@H](C)O1 [nemorubicin]"
data_value = "0.002 µM"

[[record]]
compound = "O=C1CCC(N2C(=O)c3ccccc3C2=O)C(=O)N1 (configuration not stated) [thalidomide]"
data_value = "> 10 µM"

[[record]]
compound = "NC(=O)c1ccc[n+]([C@@H]2O[C@H](COP(=O)([O-])OP(=O)(O)OC[C@H]3O[C@@H](n4cnc5c(N)ncnc54)[C@H](O)[C@@H]3O)[C@@H](O)[C@H]2O)c1 [nadide]"
data_value = "> 10 µM"

[[record]]
compound = "CCC(=O)c1cc(-c2ccc(Cl)cc2)n(-c2ccc(S(N)(=O)=O)cc2)c1C"
data_value = "> 10 µM"

[[record]]
compound = "CCN(CC)CCOC(=O)c1cc(Cl)c(N)cc1OC [SDZ-205-557]"
data_value = "> 10 µM"


Input CCOc1ccccc1OC(c1ccccc1)C1CNCCO1 (configuration not stated) [reboxetine] . Output relative viability EC50: > 10 µM

Input Cc1cn([C@H]2O[C@@H](CO)[C@H](O)[C@H]2F)c(=O)[nH]c1=O [clevudine] . Output relative viability EC50: > 10 µM

Input O=C(O)[C@H](Cc1ccc(Nc2nccc3ccncc23)cc1)NC1=C(Br)C(=O)C12CCCCC2 [CT-7758] . Output relative viability EC50: > 10 µM

Input COc1cc([C@@H]2c3cc4c(cc3[C@@H](O[C@@H]3O[C@@H]5CO[C@@H](C)O[C@H]5[C@H](O)[C@H]3O)[C@H]3COC(=O)[C@H]23)OCO4)cc(OC)c1OP(=O)(O)O [etoposide-phosphate] . Output relative viability EC50: > 10 µM

Input C[C@@H]1COCCN1c1cc(C2(S(C)(=O)=O)CC2)nc(-c2cccc3[nH]ccc23)n1 [AZ20] . Output relative viability EC50: 1.71 µM

Input CN(C)[C@@H](CCOc1cccc2ccccc12)c1ccccc1 [dapoxetine] . Output relative viability EC50: > 10 µM

Input O=C1C(=Cc2cccnc2)C(=O)c2ccccc21 [PRT4165] . Output relative viability EC50: > 10 µM

----------
Test system: U2OS
Assay Remarks: cell viability relative to DMSO; higher = less toxic
Protocol Conditions: 72 h; 100 nM
Quantity Kind: cell viability (%)
Enter your answer as a number in %; do not include the unit.

Example cases with answers are listed next.
[[record]]
molecule_smiles = "N=C(N)N"
data_value = 105

[[record]]
molecule_smiles = "O=C(O)[C@H](Cc1ccc(Nc2nccc3ccncc23)cc1)NC1=C(Br)C(=O)C12CCCCC2"
data_value = 96.6

[[record]]
molecule_smiles = "COc1ccc2c3c([nH]c2c1)[C@H](CC(C)C)N1C(=O)[C@H](CCC(=O)OC(C)(C)C)NC(=O)[C@@H]1C3"
data_value = 98.1

[[record]]
molecule_smiles = "O=C1COc2nccc(-c3ccccc3F)c2CN1Cc1cc(C(F)(F)F)cc(C(F)(F)F)c1"
data_value = 100


Would you kindly look at the next entry?
Input `N[C@@H](Cc1c[nH]c2ccccc12)C(=O)O` . Output cell viability: 101

----------
Test system: Calu-3
Assay Remarks: cell viability relative to DMSO; higher = less toxic
Protocol Conditions: 72 h; 10 nM
Here the recorded cell viability is given for each entry.
Enter your answer as a number in %; do not include the unit.

Example cases with answers are listed next.
[[record]]
molecule = "C#Cc1cccc(Nc2ncnc3cc(OCCOC)c(OCCOC)cc23)c1"
quantity_kind = "cell viability"
data_value = 109

[[record]]
molecule = "NC(=O)c1ccc[n+]([C@@H]2O[C@H](COP(=O)([O-])OP(=O)(O)OC[C@H]3O[C@@H](n4cnc5c(N)ncnc54)[C@H](O)[C@@H]3O)[C@@H](O)[C@H]2O)c1 [nadide]"
quantity_kind = "cell viability"
data_value = 103

[[record]]
molecule = "Cc1cc(-c2ccc(CC(=O)Nc3ccc(-c4cccnc4)cc3)cc2)ccn1"
quantity_kind = "cell viability"
data_value = 106


Per the reported Calu-3 data, `Cc1ccc(S(=O)(=O)OCC(=O)Nc2ccc(C(=O)O)c(O)c2)cc1` has cell viability of 95.1

----------
System: HepG2
Assay Remarks: relative viability EC50 (midpoint between 100% and the lowest measured viability); higher = less toxic
Protocol Conditions: 72 h
Here the recorded relative viability EC50 is given for each entry.

Example cases with answers are listed next.
[[record]]
compound = "O=C(O)c1c2ccccc2cc2ccccc12"
quantity_kind = "relative viability EC50"
data_value = "> 10 µM"

[[record]]
compound = "CCN(CC)CCOc1ccc2c(c1)C(=O)c1cc(OCCN(CC)CC)ccc1-2"
quantity_kind = "relative viability EC50"
data_value = "2.87 µM"

[[record]]
compound = "COc1cc([C@@H]2c3cc4c(cc3[C@@H](O[C@@H]3O[C@@H]5CO[C@@H](C)O[C@H]5[C@H](O)[C@H]3O)[C@H]3COC(=O)[C@H]23)OCO4)cc(OC)c1OP(=O)(O)O [etoposide-phosphate]"
quantity_kind = "relative viability EC50"
data_value = "0.478 µM"


Input `O=C(Nc1ccc(-c2ccncc2)cc1)N[C@H](CO)c1ccccc1` . Output relative viability EC50: > 10 µM

Input CCc1cc(C(N)=S)ccn1 [ethionamide] . Output relative viability EC50: > 10 µM

Input `O=C(O)CCN(O)C(=O)CCCCCCCCC1CC1` . Output relative viability EC50: > 10 µM

Input `CCN(CC)CCOC(=O)C1(C2CCCCC2)CCCCC1` . Output relative viability EC50: > 10 µM

Input `CCS(=O)(=O)N1CCC([C@@H](C)n2c(C)c(C(=O)NCc3c(OC)cc(C)[nH]c3=O)c3ccccc32)CC1` . Output relative viability EC50: > 10 µM

Input `CCc1cc2c(c(CC)n1)CCC(=O)N2Cc1ccc(-c2ccccc2-c2nnn[nH]2)cc1` . Output relative viability EC50: > 10 µM

Input O=C(NC(=O)c1c(F)cccc1F)Nc1cc(Cl)c(OC(F)(F)C(F)C(F)(F)F)cc1Cl (configuration not stated) . Output relative viability EC50: > 10 µM

Input `CN(C)c1ccc(C(=O)NCCCCCCC(=O)NO)cc1` . Output relative viability EC50: 0.504 µM

Input `CCNC(=O)[C@H]1O[C@@H](n2cnc3c(N)ncnc32)[C@H](O)[C@@H]1O` . Output relative viability EC50: > 10 µM

Input `C[C@@H]1COCCN1c1cc(C2(S(C)(=O)=O)CC2)nc(-c2cccc3[nH]ccc23)n1` . Output relative viability EC50: 0.973 µM

Input `CC[C@@H](C)CNCC(=O)N1CCc2sccc2[C@@H]1COc1cccc(C)c1` . Output relative viability EC50: > 10 µM

Input C[C@]12CC[C@@H]3c4ccc(OC(=O)c5ccccc5)cc4CC[C@H]3[C@@H]1CC[C@@H]2O [estradiol-benzoate] . Output relative viability EC50: > 10 µM

Input `O=C(Nc1c(Cl)cncc1Cl)c1ccc(OC(F)F)c(OCC2CC2)c1` . Output relative viability EC50: > 10 µM

Input `C=C(CC)C(=O)c1ccc(OCC(=O)O)c(Cl)c1Cl` . Output relative viability EC50: > 10 µM
